Ref: patent EP0326329B1

What SM RESULTS % was measured for each of the following?
Test system: Twospotted spider mites (Tetranychus urticae Koch)
Test: Mite/insect screen, sprayed squash cotyledons (SM)
Type: in vivo
Conditions: percent mortality; spray rate 200 ppm
Experimental: The compounds of Examples 1-203 were tested for miticidal and insecticidal activity in the following mite/insect screen. Each test compound was formulated by dissolving the compound in acetone/alcohol (50:50) mixture containing 23 g of "TOXIMUL R" (sulfonate/nonionic emulsifier blend) and 13 g of "TOXIMUL S" (sulfonate/nonionic emulsifier blend) per liter. […] After standard exposure periods, percent mortality and phytotoxicity were evaluated. […]
Answers are plain numbers, in %.

Would you please look over these solved cases?
# compound, SM RESULTS %, %
records = [
    ("Clc1ccc2ncnc(NCCc3ccccc3Oc3ccccc3)c2c1 [Example 57]", 0),
    ("Fc1cccc2c(NCC(c3ccccc3)c3ccccc3)ncnc12 [Example 61]", 0),
    ("c1ccc2cc(CCNc3ncnc4ccccc34)ccc2c1 [Example 53]", 0),
]

From here, focus on the item given below.
Query Fc1cccc2c(OCCc3ccc(-c4ccccc4)cc3)ncnc12 [Example 93] on Twospotted spider mites (Tetranychus urticae Koch); SM RESULTS % returned: 80

---

test system: Twospotted spider mites (Tetranychus urticae Koch); experiment: Mite/insect screen, sprayed squash cotyledons (SM); assay type: in vivo; settings: Tetranychus urticae, percent mortality; spray rate 400 ppm; read-out: SM RESULTS %
observed_property: mortality at 400 ppm (%)
Answers are plain numbers, in %.

# compound, display_unit, mortality at 400 ppm
measured = [
    ("c1ccc(Oc2cccc(CCNc3ncnc4ccccc34)c2)cc1", "%", 90),
    ("Fc1cccc2c(NCCc3ccc4ccccc4c3)ncnc12", "%", 0),
    ("Fc1ccc(CCOc2ncnc3c(F)cccc23)c(F)c1", "%", 80),
    ("CC(COc1ncnc2ccccc12)c1ccc(-c2ccccc2)cc1 (stereo not drawn)", "%", 0),
]

Record mortality at 400 ppm per entry; entries follow.
1. CC(Cc1ccccc1)Oc1ncnc2ccccc12 (stereo not drawn)
2. COc1ccc(CCOc2ncnc3ccccc23)cc1OC
3. COc1ccccc1CCOc1ncnc2ccccc12 [Example 14, 4-[2-(2-methoxyphenyl)ethoxy]quinazoline]

[out]
0
0
0

---

test system: Twospotted spider mites (Tetranychus urticae Koch); test: Mite/insect screen, sprayed squash cotyledons (SM); format: in vivo; settings: Tetranychus urticae, percent mortality; spray rate 400 ppm; read-out: SM RESULTS %
What mortality at 400 ppm was measured for each of the following?
Could you write the number and then its unit?

Would you please look over these solved cases?
# compound, observed_property, measured_result
measured = [
    ("Brc1ccc2ncnc(NCCc3ccc(Oc4ccccc4)cc3)c2c1 [Example 177]", "mortality at 400 ppm", "50%"),
    ("CC(C)(C)c1ccc(CCCCOc2ncnc3ccccc23)cc1 [Example 178]", "mortality at 400 ppm", "100%"),
    ("c1ccc(Oc2ccc(CCOc3ncnc4ccccc34)cc2)cc1 [Example 69, 4-[2-(4-phenoxyphenyl)ethoxy]quinazoline]", "mortality at 400 ppm", "100%"),
]

Record mortality at 400 ppm per entry; entries follow.
1. Fc1cccc2c(NCCc3ccc(-c4ccccc4)cc3)ncnc12 [Example 102]
2. CCOc1ccc(CCOc2ncnc3ccccc23)cc1 [Example 15, 4-[2-(4-ethoxyphenyl)ethoxy]quinazoline]
3. COc1ccc(CCOc2ncnc3c(F)cccc23)cc1 [Example 132]
4. CC(COc1ncnc2ccccc12)c1ccccc1 (centres unmarked) [Example 60, 4-(2-phenylpropoxy)quinazoline]
5. CC(C)(C)c1ccc(CCOc2nc(C(Cl)(Cl)Cl)nc3ccccc23)cc1 [Example 172]

[out]
90%
0%
0%
100%
0%
